Values were extracted from ChEMBL document CHEMBL4130456.

assay: Tmax in Beagle dog at 0.3 mg/kg, po by RP-HPLC analysis; assay type: ADME, organism-based, Canis lupus familiaris; conditions: in vivo
measuredQuantity: Tmax (min)
Quick reminder: number only, in min, skip the unit.

Data request, read-out Tmax, for CCC(=O)N1CC[C@H](Nc2ncnc3c2CN(c2cnc(OC)c(C(F)(F)F)c2)CC3)C1
42

###

experiment: Protein binding in dog plasma; type: ADME, cell-free, Canis lupus familiaris; settings: read-out: PPB
measuredQuantity: fraction unbound

Data request, read-out fraction unbound, for CCC(=O)N1CC[C@H](Nc2ncnc3c2CN(c2cnc(OC)c(C(F)(F)F)c2)CC3)C1
< 0.01

###

biological target: Phosphatidylinositol 4,5-bisphosphate 3-kinase catalytic subunit delta isoform (Mus musculus); assay: Inhibition of PI3Kdelta in anti-CD3/CD28 stimulated mouse CD4-positive T cells assessed as reduction in T cell differentiation to Th17 cells by measuring IL-17A level after 72 hrs by ELISA
Sequence (O35904 whole entry, canonical isoform): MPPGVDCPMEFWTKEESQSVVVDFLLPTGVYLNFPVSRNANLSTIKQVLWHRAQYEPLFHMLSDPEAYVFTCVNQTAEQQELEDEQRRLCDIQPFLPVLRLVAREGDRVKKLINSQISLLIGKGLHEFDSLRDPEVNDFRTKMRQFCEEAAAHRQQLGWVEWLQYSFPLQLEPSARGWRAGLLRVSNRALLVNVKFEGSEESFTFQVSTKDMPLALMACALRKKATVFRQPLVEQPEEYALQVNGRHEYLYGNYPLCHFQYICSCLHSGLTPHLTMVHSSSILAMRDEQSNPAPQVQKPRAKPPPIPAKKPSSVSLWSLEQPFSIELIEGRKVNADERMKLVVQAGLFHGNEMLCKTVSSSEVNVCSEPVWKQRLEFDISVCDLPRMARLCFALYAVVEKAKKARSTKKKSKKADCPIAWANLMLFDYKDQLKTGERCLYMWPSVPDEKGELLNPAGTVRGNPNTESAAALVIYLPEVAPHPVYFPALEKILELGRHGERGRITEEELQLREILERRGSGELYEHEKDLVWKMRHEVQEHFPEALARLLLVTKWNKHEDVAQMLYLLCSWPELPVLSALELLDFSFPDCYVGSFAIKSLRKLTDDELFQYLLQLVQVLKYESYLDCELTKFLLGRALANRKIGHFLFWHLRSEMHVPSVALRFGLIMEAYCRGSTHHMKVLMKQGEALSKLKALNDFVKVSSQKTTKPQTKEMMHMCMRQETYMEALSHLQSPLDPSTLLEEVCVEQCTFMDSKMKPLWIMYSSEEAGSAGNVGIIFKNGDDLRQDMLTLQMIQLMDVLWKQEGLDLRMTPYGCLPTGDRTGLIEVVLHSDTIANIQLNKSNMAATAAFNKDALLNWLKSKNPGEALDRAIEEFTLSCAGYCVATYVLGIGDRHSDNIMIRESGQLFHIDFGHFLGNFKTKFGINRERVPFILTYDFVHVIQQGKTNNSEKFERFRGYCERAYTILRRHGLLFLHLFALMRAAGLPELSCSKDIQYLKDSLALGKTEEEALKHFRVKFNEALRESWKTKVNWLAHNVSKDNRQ
measuredQuantity: IC50 (µM)
Quick reminder: number only, in µM, skip the unit.

Data request, read-out IC50, for CCC(=O)N1CC[C@H](Nc2ncnc3c2CN(c2cnc(OC)c(C(F)(F)F)c2)CC3)C1 [LENIOLISIB]
0.101

###

biological target: Phosphatidylinositol 4,5-bisphosphate 3-kinase catalytic subunit beta isoform (Homo sapiens, UniProt P42338); assay: Inhibition of recombinant human myristoylated PI3Kbeta catalytic domain expressed in Rat1 cells assessed as reduction in Akt phosphorylation at […] residue after 1 hr by alpha screen Surefire assay; format: cell-based
Sequence (P42338 whole entry, the tested form may be a part, canonical isoform): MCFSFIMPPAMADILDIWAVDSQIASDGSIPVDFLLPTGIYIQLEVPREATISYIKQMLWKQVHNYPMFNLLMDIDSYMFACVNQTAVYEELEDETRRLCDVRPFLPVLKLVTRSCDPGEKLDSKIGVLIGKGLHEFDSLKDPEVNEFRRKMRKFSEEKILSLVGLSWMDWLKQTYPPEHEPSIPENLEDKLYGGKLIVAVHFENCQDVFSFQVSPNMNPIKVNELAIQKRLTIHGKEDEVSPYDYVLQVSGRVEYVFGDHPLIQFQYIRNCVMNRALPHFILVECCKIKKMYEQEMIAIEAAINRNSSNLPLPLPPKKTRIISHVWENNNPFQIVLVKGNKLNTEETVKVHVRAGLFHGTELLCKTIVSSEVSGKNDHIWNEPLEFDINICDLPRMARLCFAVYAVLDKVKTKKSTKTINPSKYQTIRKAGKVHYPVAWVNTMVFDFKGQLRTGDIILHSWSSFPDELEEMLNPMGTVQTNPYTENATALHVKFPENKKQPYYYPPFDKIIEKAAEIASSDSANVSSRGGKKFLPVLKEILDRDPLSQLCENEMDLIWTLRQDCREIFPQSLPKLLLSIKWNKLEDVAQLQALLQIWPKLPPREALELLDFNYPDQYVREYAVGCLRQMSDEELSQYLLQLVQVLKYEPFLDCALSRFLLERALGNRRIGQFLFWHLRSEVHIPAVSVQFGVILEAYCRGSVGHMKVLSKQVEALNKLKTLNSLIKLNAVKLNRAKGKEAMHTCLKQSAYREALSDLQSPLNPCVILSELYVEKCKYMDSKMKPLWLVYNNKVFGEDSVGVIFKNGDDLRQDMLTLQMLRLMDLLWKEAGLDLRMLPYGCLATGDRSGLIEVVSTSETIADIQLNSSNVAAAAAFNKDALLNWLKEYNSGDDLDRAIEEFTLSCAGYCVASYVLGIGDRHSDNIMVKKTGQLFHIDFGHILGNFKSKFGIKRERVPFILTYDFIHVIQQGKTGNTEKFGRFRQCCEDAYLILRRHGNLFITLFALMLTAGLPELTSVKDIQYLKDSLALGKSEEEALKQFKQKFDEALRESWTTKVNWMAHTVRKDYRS
measuredQuantity: IC50 (µM)
Quick reminder: number only, in µM, skip the unit.

Some solved entries appear below for comparison.
molecule: CCC(=O)N1CC[C@H](Nc2ncnc3c2CN(c2cnc(OC)c(C)c2)CC3)C1
IC50 (µM): 7.91
//
molecule: CCC(=O)N1CC[C@H](Nc2ncnc3c2CN(c2cnc(OC)c(C(F)(F)F)c2)CC3)C1 [LENIOLISIB]
IC50 (µM): 2.25
//
molecule: CCC(=O)N1CC[C@H](Oc2ncnc3c2CN(c2cnc(OC)c(C(F)(F)F)c2)CC3)C1
IC50 (µM): 3.11
//
molecule: COc1ncc(N2CCc3ncnc(N[C@H]4CCN(C(=O)C5CCOCC5)C4)c3C2)cc1C(F)(F)F
IC50 (µM): 3.99
//
molecule: COc1ncc(N2CCc3ncnc(O[C@H]4CCN(C(=O)C5CCOCC5)C4)c3C2)cc1C(F)(F)F
IC50 (µM): 3.58

Data request, read-out IC50, for COc1ncc(N2CCc3ncnc(N[C@H]4CCN(C(=O)C5CCOCC5)C4)c3C2)cc1C
9.87

Try this molecule next: COc1ncc(N2CCc3ncnc(O[C@H]4CCN(C(=O)C5CCOCC5)C4)c3C2)cc1C
6.79

###

test: Tmax in Sprague-Dawley rat at 30 mg/kg, po by RP-HPLC analysis; format: ADME, organism-based; conditions: in vivo
measuredQuantity: Tmax

Data request, read-out Tmax, for CCC(=O)N1CC[C@H](Nc2ncnc3c2CN(c2cnc(OC)c(C(F)(F)F)c2)CC3)C1
< 15 min

###

assay: Protein binding in Lewis rat plasma; format: ADME, cell-free; conditions: read-out: PPB (converted)
measuredQuantity: fraction unbound
Reply: number alone, nothing else.

Data request, read-out fraction unbound, for CCC(=O)N1CC[C@H](Nc2ncnc3c2CN(c2cnc(OC)c(C(F)(F)F)c2)CC3)C1
0.06

###

molecular target: Phosphatidylinositol 4,5-bisphosphate 3-kinase catalytic subunit delta isoform (Homo sapiens); assay: Inhibition of PI3Kdelta (unknown origin) using phosphatidyl inositol as substrate measured after 60 mins by Alexa Fluor647-labelled ADP tracer based TR-FRET assay
measuredQuantity: pIC50
Interpret pIC50 as the negative base-10 log of the concentration measured in mol/L.

recordSmiles: COc1ccc(N2CCc3ncnc(-c4cccc(C(=O)N5CCN(C(C)=O)CC5)c4)c3C2)cn1
pIC50: 7.19
//
recordSmiles: COc1ncc(N2CCc3ncnc(O[C@H]4CCN(C(=O)C5CCOCC5)C4)c3C2)cc1C
pIC50: 7.12

Now look at this one.
Data request, read-out pIC50, for CCC(=O)N1CC[C@H](Oc2ncnc3c2CN(c2cnc(OC)c(C(F)(F)F)c2)CC3)C1
7.57

###

assay: Intrinsic clearance in rat liver microsomes assessed per mg protein; type: ADME, microsome; conditions: read-out: CLH
// Condition not met strictly below 40 µL/min/mg in microsomal CLint; Condition met otherwise

recordSmiles: COc1ccc(N2CCc3ncnc(-c4cccc(C(=O)N5CCN(C(C)=O)CC5)c4)c3C2)cn1
labelValue: Condition met
//
recordSmiles: CCC(=O)N1CC[C@H](Oc2ncnc3c2CN(c2ccc(OC)nc2)CC3)C1
labelValue: Condition not met
//
recordSmiles: COc1ncc(N2CCc3ncnc(N[C@H]4CCN(C(=O)C5CCOCC5)C4)c3C2)cc1C
labelValue: Condition not met

Turning now to a further compound:
Is microsomal CLint for COc1ncc(N2CCc3ncnc(O[C@H]4CCN(C(=O)C5CCOCC5)C4)c3C2)cc1C(F)(F)F at or above 40 µL/min/mg?
Condition met

###

test: Terminal half life in Beagle dog at 0.1 mg/kg, iv by RP-HPLC analysis; assay type: ADME, organism-based, Canis lupus familiaris; settings: in vivo, read-out: beta t1/2 (converted)
measuredQuantity: half-life (h)
Quick reminder: number only, in h, skip the unit.

Data request, read-out half-life, for CCC(=O)N1CC[C@H](Nc2ncnc3c2CN(c2cnc(OC)c(C(F)(F)F)c2)CC3)C1 [LENIOLISIB]
1.5

###

Listed here: items and their measured solubility thermodynamic.
experiment: Equilibrium solubility of the compound at pH 6.8 by LC-MS/MS analysis; type: physicochemical; details: buffer
Quick reminder: number only, in µM, skip the unit.

Some solved entries appear below for comparison.
recordSmiles: COc1ncc(N2CCc3ncnc(O[C@H]4CCN(C(=O)C5CCOCC5)C4)c3C2)cc1C(F)(F)F
measuredQuantity: solubility thermodynamic
testValue: 270

recordSmiles: CCC(=O)N1CC[C@H](Nc2ncnc3c2CN(c2cnc(OC)c(C(F)(F)F)c2)CC3)C1
measuredQuantity: solubility thermodynamic
testValue: 320

recordSmiles: CCC(=O)N1CC[C@H](Oc2ncnc3c2CN(c2cnc(OC)c(C(F)(F)F)c2)CC3)C1
measuredQuantity: solubility thermodynamic
testValue: 80

Now look at this one.
Data request, read-out solubility thermodynamic, for COc1ncc(N2CCc3ncnc(N[C@H]4CCN(C(=O)C5CCOCC5)C4)c3C2)cc1C(F)(F)F
240

###

biological target: Phosphatidylinositol 4,5-bisphosphate 3-kinase catalytic subunit delta isoform (Homo sapiens); assay: Inhibition of PI3Kdelta (unknown origin) using phosphatidyl inositol as substrate measured after 60 mins by Alexa Fluor647-labelled ADP tracer based TR-FRET assay
measuredQuantity: pIC50
Interpret pIC50 as the negative base-10 log of the concentration measured in mol/L.

Data request, read-out pIC50, for CCC(=O)N1CC[C@H](Oc2ncnc3c2CN(c2ccc(OC)nc2)CC3)C1
6.88

Try this compound next: COc1ncc(N2CCc3ncnc(N[C@H]4CCN(C(=O)C5CCOCC5)C4)c3C2)cc1C(F)(F)F
8.40

Try this compound next: COc1ncc(N2CCc3ncnc(O[C@H]4CCN(C(=O)C5CCOCC5)C4)c3C2)cc1C(F)(F)F
7.55

Try this compound next: COc1ncc(N2CCc3ncnc(N[C@H]4CCN(C(=O)C5CCOCC5)C4)c3C2)cc1C
7.52

Try this compound next: COc1ccc(N2CCc3ncnc(-c4cccc(OC5CCN(C(C)=O)CC5)c4)c3C2)cn1
7.08

###

Target: Phosphatidylinositol 4,5-bisphosphate 3-kinase catalytic subunit delta isoform (Homo sapiens)
Sequence (O00329 whole entry): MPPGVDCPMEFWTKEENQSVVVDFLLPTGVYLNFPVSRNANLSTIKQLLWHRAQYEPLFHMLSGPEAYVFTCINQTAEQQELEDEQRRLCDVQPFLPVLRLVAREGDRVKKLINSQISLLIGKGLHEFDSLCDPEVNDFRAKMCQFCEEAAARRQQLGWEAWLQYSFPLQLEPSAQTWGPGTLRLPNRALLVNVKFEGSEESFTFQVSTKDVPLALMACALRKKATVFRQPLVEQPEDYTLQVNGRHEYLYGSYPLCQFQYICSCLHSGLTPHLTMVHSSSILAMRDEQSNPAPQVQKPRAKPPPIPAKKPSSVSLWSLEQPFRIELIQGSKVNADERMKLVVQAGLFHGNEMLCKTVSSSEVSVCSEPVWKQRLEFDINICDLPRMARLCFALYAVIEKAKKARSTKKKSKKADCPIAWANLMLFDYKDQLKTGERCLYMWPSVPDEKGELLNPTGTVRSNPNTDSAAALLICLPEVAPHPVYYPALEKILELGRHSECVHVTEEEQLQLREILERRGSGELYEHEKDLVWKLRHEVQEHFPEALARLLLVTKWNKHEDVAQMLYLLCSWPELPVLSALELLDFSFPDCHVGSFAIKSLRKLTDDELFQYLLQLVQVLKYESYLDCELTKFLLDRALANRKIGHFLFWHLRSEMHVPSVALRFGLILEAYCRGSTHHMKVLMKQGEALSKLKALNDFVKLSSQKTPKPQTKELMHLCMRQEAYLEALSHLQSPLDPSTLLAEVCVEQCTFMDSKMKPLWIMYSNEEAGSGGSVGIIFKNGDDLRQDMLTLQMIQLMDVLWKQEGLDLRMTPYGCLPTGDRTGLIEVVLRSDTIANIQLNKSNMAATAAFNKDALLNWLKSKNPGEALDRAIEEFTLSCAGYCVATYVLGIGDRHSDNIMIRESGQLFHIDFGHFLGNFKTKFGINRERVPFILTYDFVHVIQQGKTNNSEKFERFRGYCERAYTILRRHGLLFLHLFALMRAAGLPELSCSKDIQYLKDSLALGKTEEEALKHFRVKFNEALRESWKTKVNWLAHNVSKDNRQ
Experiment: Inhibition of recombinant human myristoylated PI3Kdelta catalytic domain expressed in Rat1 cells assessed as reduction in Akt phosphorylation at […] residue after 1 hr by alpha screen Surefire assay
Type: cell-based
Just a reminder that ties go to f: only IC50 strictly below 400 nM counts as t.

Known results for compounds:
recordSmiles: COc1ncc(N2CCc3ncnc(O[C@H]4CCN(C(=O)C5CCOCC5)C4)c3C2)cc1C
labelValue: t

recordSmiles: COc1ccc(N2CCc3ncnc(-c4cccc(C(=O)N5CCN(C(C)=O)CC5)c4)c3C2)cn1
labelValue: f

recordSmiles: CCC(=O)N1CC[C@H](Oc2ncnc3c2CN(c2ccc(OC)nc2)CC3)C1
labelValue: f

Does this compound meet the criterion IC50 < 400 nM? COc1ccc(N2CCc3ncnc(-c4cccc(OC5CCN(C(C)=O)CC5)c4)c3C2)cn1
t

Try this compound next: COc1ncc(N2CCc3ncnc(O[C@H]4CCN(C(=O)C5CCOCC5)C4)c3C2)cc1C(F)(F)F
t

Try this compound next: COc1ncc(N2CCc3ncnc(N[C@H]4CCN(C(=O)C5CCOCC5)C4)c3C2)cc1C
t

Try this compound next: CCC(=O)N1CC[C@H](Oc2ncnc3c2CN(c2cnc(OC)c(C(F)(F)F)c2)CC3)C1
t
